Protocol: Plasma noribogaine pharmacokinetics, ascending single oral dose, healthy volunteers
Format: in vivo, human
Particulars: human; healthy male volunteers, single oral 30 mg noribogaine, plasma, mean (n = 6)
Reported Endpoint: Tmax (h)

[[record]]
structure_as_smiles = "CC[C@H]1CC2C[C@H]3c4[nH]c5ccc(O)cc5c4CCN(C2)C13"
val = 1.8


###

Protocol: Serum noribogaine pharmacokinetics in patients, Phase IB study
Assay type: in vivo, human
Particulars: human; Cohort 1 (60 mg), opioid-dependent patients, serum, mean ± SD; read-out: AUC(0-¥)
Reported Endpoint: AUC (ng·h/mL)

[[record]]
structure_as_smiles = "CC[C@H]1CC2C[C@H]3c4[nH]c5ccc(O)cc5c4CCN(C2)C13"
reported_endpoint = "AUC"
val = 2060


Where these numbers come from: patent US20150231147A1
